Every entry's value here was drawn from PubChem BioAssay (NCI).

# Test system: KM12 colon
# EXPERIMENTAL_PROTOCOL: NCI-60 one-dose screen, 48 h
# CONDITION_DESCRIPTION: 10 µM unless noted
Compounds without any hit were thinned out: in the full panel of roughly 83,000, 20% have a hit. Calls of active or inactive are those of the source. Rule for the calls: active = growth percent below 10; inactive = the rest.
Respond with a class label; see active, inactive

Please review the following examples before continuing.
O=C1CSC(c2c(F)cccc2Cl)N1NC(=O)C(O)(c1ccccc1)c1ccccc1 (stereo not drawn) | inactive
C=C1C[C@H](O)[C@H](Br)C(C)(C)[C@@]12CCC(C)=C(Cl)C2 | inactive

Attention now shifts to the item below.
[in] Could you please tell me the result logged for "COCc1c(-c2ccc(NC(=O)Nc3cc(C(F)(F)F)ccc3F)c(F)c2)c2c(N)ncnn2c1CN1CCOCC1" in this assay?
[out] active
